# test target: human NaV 1.8 (Homo sapiens, UniProt Q9Y5Y9)
# Sequence (Q9Y5Y9 whole entry, looked up): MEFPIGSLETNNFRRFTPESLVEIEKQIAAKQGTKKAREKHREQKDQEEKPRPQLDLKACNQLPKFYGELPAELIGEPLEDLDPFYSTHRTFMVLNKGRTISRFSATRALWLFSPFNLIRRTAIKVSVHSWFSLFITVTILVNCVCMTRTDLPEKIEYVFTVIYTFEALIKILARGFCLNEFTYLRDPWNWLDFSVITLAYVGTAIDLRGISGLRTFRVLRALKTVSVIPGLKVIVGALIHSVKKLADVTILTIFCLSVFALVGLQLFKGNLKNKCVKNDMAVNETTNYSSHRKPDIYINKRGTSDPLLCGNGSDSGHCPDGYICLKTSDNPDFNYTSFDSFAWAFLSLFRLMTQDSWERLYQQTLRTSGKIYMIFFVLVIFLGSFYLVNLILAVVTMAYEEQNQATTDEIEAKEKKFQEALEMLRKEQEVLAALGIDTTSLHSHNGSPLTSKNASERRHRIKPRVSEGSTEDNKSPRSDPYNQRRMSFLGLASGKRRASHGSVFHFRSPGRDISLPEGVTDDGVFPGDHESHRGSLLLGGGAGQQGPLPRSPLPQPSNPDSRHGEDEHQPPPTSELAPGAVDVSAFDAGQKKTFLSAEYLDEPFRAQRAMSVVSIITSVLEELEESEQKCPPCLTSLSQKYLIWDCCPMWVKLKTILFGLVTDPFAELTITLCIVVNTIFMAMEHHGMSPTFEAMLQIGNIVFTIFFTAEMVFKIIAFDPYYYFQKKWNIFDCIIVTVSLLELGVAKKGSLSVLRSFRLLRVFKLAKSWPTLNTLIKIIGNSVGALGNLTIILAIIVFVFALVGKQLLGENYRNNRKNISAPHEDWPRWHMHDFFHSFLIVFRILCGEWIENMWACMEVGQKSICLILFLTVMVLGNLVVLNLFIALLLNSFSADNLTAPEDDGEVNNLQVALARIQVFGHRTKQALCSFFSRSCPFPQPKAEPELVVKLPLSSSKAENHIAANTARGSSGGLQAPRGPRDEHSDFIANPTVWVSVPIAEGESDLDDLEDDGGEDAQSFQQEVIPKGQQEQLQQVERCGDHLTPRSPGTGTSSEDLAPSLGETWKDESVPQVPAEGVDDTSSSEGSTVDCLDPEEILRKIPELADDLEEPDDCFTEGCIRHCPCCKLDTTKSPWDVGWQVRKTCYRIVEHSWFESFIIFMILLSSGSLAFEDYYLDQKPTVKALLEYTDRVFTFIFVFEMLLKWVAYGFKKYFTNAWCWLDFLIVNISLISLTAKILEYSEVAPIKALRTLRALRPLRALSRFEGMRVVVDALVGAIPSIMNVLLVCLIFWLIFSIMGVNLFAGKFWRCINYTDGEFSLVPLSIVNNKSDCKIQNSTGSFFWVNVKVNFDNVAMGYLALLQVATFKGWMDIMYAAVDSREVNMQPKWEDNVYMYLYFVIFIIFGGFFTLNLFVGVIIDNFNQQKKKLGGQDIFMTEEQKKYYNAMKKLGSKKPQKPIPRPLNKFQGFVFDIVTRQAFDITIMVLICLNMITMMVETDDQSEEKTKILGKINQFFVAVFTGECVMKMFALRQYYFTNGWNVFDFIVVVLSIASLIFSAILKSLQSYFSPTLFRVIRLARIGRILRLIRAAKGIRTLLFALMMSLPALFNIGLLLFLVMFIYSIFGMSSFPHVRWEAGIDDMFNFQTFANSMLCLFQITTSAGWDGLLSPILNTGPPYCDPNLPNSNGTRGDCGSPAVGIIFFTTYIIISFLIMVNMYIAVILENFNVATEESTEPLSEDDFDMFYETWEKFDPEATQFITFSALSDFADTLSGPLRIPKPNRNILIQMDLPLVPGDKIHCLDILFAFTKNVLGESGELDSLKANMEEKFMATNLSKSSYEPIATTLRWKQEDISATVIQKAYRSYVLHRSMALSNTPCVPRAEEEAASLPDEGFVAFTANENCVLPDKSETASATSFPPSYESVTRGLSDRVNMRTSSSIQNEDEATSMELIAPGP
# protocol text: E-VIPR assay for detecting and measuring NaV inhibition properties
# Format: cell-based
# assay context: E-VIPR assay conducted in the presence of human serum; HEK cells expressing truncated human NaV 1.8; read-out: IC50
pIC50: −log10 of the molar value.
metric name: pIC50

Cc1c2c(cc(Oc3ccc(OC(F)(F)F)cc3Cl)c1C(=O)Nc1ccnc(C(N)=O)c1)OC(F)(F)O2	7.14
COc1c(Oc2ccc(C(F)(F)F)c(C)c2C(=O)Nc2ccc(C(N)=O)nc2)ccc(OC(F)(F)F)c1F	8.22
COc1c(Oc2ccc(C(F)(F)F)c(C)c2C(=O)Nc2cc(C(N)=O)ncn2)ccc(OC(F)(F)F)c1F	6.92
COc1cc(Oc2ccc(OC(F)(F)F)cc2Cl)c(C(=O)Nc2cnc(C(N)=O)nc2)c(F)c1C(F)(F)F	8.05
COc1c(Oc2ccc(C(F)(F)F)c(C)c2C(=O)Nc2ccnc(C(N)=O)c2)ccc(OC(F)(F)F)c1F	8.52
COc1c(C(F)(F)F)ccc(Oc2ccc(OC(F)(F)F)c(F)c2)c1C(=O)Nc1ccnc(C(N)=O)c1	7.44

a = COc1c(Oc2ccc(C(F)(F)F)c(C)c2C(=O)Nc2ccc(C(N)=O)nn2)ccc(OC(F)(F)F)c1F
b = COc1c(Oc2cc3c(cc2C(=O)Nc2ccnc(C(N)=O)c2)OC(F)(F)O3)ccc(OC(F)(F)F)c1F
// max by pIC50 over [ a , b ] Answer = label.
b
